assay: NCI Yeast Anticancer Drug Screen. Data for the sgs1 mgt1 strain (AID 161); conditions: S. cerevisiae sgs1 mgt1 strain, at 50.0 µM
The panel holds about 79,000 compounds, 15% with a hit somewhere; the sample as a whole holds those more often. Calls of active or inactive are those of the source. Rule as the data show it: active = growth inhibition above about 70%; inactive = the rest. Where a SMILES comes first, the peptide text is derived from it. Bridges are numbered along the chain shown (N, C = ends).
Labels: active, inactive

compound	className
CCCCCCCCCCCCOc1ccc2ccccc2c1	inactive
O=C1CC(CC(=O)c2ccc(Br)cc2)C(=O)/C1=C(/O)c1ccc(Br)cc1 (stereo not given)	inactive
COc1cc(/C=N/N=C(\N)NO)cc(Cl)c1O	inactive
CCOC(=O)C1CCCCC1C(=O)OCC (stereo not given)	inactive
CC(=O)c1ccc(C(C)=O)c(OCc2ccccc2)c1	inactive
CCOC(=O)NCc1cccc2ccccc12	inactive
COc1ccc(O)c2c(=O)ccccc12	inactive
O=[N+]([O-])c1ccc(S(=O)(=O)Nc2ccccc2-c2ccccc2)cc1	active
CCCC(=O)OC1=CC(=O)c2ccccc2C1=O	inactive
CCCCSc1nc(NCC)nc(NCC)n1	inactive
CC(C)c1ccc(N=Nc2ccc(N(C)C)cc2)cc1	inactive
CC(=O)N(C(=O)CC(=O)N/N=C\c1ccc(Br)c(N(CCC#N)CCC#N)c1)c1ccc(Cl)cc1	inactive
O=[N+]([O-])c1ccc(C[N+]2(CCC[N+]3(Cc4ccc([N+](=O)[O-])cc4)CCCC3)CCCC2)cc1	inactive
COC1=CC(=O)N/C1=C(\OC)c1ccccc1	inactive
CC(C)C(NC(=O)c1cnc2ccccc2n1)C(=O)O (stereo not given)	inactive
O=C(Nc1cc(C(F)(F)F)ccc1Cl)c1ccc(Cl)cc1Cl	inactive
CN(C)CCSc1nc2ccccc2s1	inactive
COC(=O)C1CCC(=O)NCCCCC(NC(=O)C(N)CC(=O)O)C(=O)N1 (stereo not drawn) (H-Asp-Lys-Glu-OMe; lactam 2-3; configuration not given here)	inactive
O=S(=O)(O)C1CC2C(c3ccccc31)N1ON2O1 (stereo not given)	inactive
Nc1ncnc2nc(N=Nc3ccc(S(=O)(=O)O)cc3)[nH]c12	inactive
Cc1ccc(-n2c(O)c(N=Nc3ccccc3)c(=O)n(-c3ccccc3)c2=S)cc1	inactive
O=C(O)CC(O)c1ccccc1 (stereo not given)	inactive
CN=C1SC(C)(C)NN1C	inactive
CN(C)c1nc(=O)c2c(ccc3ccccc32)o1	inactive
O=C(NCCO)C(=O)NCCO	inactive
CC1=C(C(=O)OC2CC3CCC2(C)C3(C)C)C2Nc3ccccc3N(C)C2O1 (stereo not given)	inactive
Nc1nnc2nc(CC(=O)c3ccccc3[N+](=O)[O-])c(CC(=O)c3ccccc3[N+](=O)[O-])nn12	inactive
CCN(CC)CCCC(C)NC(=O)c1ccc2c(c1)C(=O)c1ccccc1C2=O (stereo not given)	inactive
C=CNC(=S)n1nc(-c2ccccc2NC(=O)C(F)(F)F)c(=O)n(C(=S)NC=C)c1=S	inactive
CC(CCC(=O)O)(CCC(=O)O)[N+](=O)[O-]	inactive
CC1=C(C)CC2C(=O)c3c(O)ccc(O)c3C(=O)C2C1 (stereo not given)	inactive
COc1ccc(CC(N)C(N)=O)cc1 (stereo not given)	inactive
CCOC(=O)C(CC)(C(=O)OCC)C(C)C	inactive
O=C1c2c(F)c(F)c(F)c(F)c2SC2=Nc3cccc4cccc(c34)N12	inactive
COc1cccc(C(c2cc3c(cc2O)OCO3)N2CCOCC2)c1O (stereo not given)	inactive
Cc1ccc(NC(=O)CNc2ccc3c(c2)Cc2ccccc2-3)cc1	inactive
c1ccc(-c2csc(-c3nc(-c4ccccc4)cs3)n2)cc1	inactive
CCCNC(C)=O	inactive
CCc1nc(Nc2cccc(C)c2)c2cnn(-c3ccccc3)c2n1	inactive
CCCCCCCCNC(=O)/C(=C\c1ccc(/C=C(/NC(=O)c2ccccc2)C(=O)NCCCCCCCC)cc1)NC(=O)c1ccccc1	inactive
